Entry source: ChEMBL document CHEMBL1139682

# protocol: Biodistribution in tumor of TA2 mouse bearing MA891 xenograft after 2 hrs
# Assay type: ADME, organism-based
# condition_info: read-out: Drug uptake
measurement_label: tissue uptake at 2 h (%ID/g)
Please give a number only; it is taken to be in %ID/g.

Short answer for CSCC(=O)NC1[C@H](O)O[C@H](CO)[C@@H](O)[C@@H]1O (stereo partly specified) : tissue uptake at 2 h was 1.25

====

# protocol: Biodistribution in blood of TA2 mouse bearing MA891 xenograft after 2 hrs
# Type: ADME, organism-based
# condition_info: read-out: Drug uptake
measurement_label: tissue uptake at 2 h (%ID/g)
Please give a number only; it is taken to be in %ID/g.

Short answer for CSCC(=O)NC1[C@H](O)O[C@H](CO)[C@@H](O)[C@@H]1O (stereo partly specified) : tissue uptake at 2 h was 2.22
